Tested on: BEAS-2B cells
Test: In vitro transfection, Metridia luciferase assay in BEAS-2B cells
Assay type: cell-based, human
Settings: MetLuc pDNA, P704 50 (w/w), optimum N/P, FIG. 14a
Protocol: Preparation of IVT-mRNA/pDNA containing binary and ternary complexes: Stock solutions of P704 (5 mg/ml) and synthetic compound (1 mg/ml) were prepared in nuclease-free water (NF water) and stored at 4° C. P704 based binary complexes (P704/IVT-mRNA or P704/pDNA) were prepared by mixing equal volumes of diluted P704 stock solution with IVT-mRNA or pDNA solution at the desired concentration in 2× Tyrode's solution. Ternary complexes were generated via two-steps incubation. […]
Where no end group is shown, it is not given here. The star is where a group is joined. ξ: configuration not given here. Lipoyl(6ξ) = O=C(CCCCC1CCSS1)*
property label: pDNA transfection efficiency of P704 ternary complex (in words)

Q: // pDNA transfection efficiency of P704 ternary complex (in words) lookup, key: DL-lipoic acid-WKKKKRRRRRKKKK-GACSERSMNFCG ({Lipoyl(6ξ)}-WKKKKRRRRRKKKKGACSERSMNFCG; cysteine pairing not given here) [compound 4]
Result: similar

Q: # pDNA transfection efficiency of P704 ternary complex (in words) lookup, item DL-lipoic acid-WKKKKRRRRRKKKK-GACYGLPHKFCG ({Lipoyl(6ξ)}-WKKKKRRRRRKKKKGACYGLPHKFCG; cysteine pairing not given here) [compound 5]
Result: similar

Q: I would be grateful if you could share the reported pDNA transfection efficiency of P704 ternary complex (in words) for DL-lipoic acid-WKKRRRRRRRRKK-GACYGLPHKFCG ({Lipoyl(6ξ)}-WKKRRRRRRRRKKGACYGLPHKFCG; cysteine pairing not given here) [compound 7] .
Result: similar
